# measured-on: 5-hydroxytryptamine receptor 2A (Rattus norvegicus, UniProt P14842)
# Sequence (P14842 whole entry, looked up): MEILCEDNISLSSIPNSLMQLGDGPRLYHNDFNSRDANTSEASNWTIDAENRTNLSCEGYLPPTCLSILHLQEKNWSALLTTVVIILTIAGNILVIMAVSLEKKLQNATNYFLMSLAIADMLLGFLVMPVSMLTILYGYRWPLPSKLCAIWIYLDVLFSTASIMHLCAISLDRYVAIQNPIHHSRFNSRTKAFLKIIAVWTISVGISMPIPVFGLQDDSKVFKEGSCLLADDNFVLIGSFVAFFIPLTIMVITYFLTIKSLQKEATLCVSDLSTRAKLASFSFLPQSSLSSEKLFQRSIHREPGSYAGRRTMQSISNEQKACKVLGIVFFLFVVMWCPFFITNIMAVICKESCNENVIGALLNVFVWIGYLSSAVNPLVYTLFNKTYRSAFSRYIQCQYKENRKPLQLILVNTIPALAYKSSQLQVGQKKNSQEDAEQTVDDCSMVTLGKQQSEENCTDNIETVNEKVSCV
# protocol-text: Compound was evaluated for displacement of [3H]ketanserin from cloned rat 5-hydroxytryptamine 2A receptor in transfected CHO-K1 cells.
parameter: Ki (nM)

mol: COc1cc(OC)c(C(=O)CCCCN2CCC3(CC2)NC(=O)NC3=O)cc1NS(=O)(=O)c1cccc(C(F)(F)F)c1
Ki [nM]: 794

a: COc1ccc(NS(=O)(=O)c2ccc(Cl)cc2)cc1C(=O)CCCCN1CCC2(CC1)NC(=O)NC2=O
b: COc1cc(OC)c(C(=O)CCCCN2CCC3(CC2)NC(=O)NC3=O)cc1Cl
c: COc1cc(OC)c(C(=O)CCCCN2CCC3(CC2)NC(=O)NC3=O)cc1N
d: COc1ccc(NS(=O)(=O)c2ccccc2)cc1C(=O)CCCCN1CCC2(CC1)NC(=O)NC2=O
Rank the 4 compounds: largest Ki first, smallest last. A ranking is expressed here by listing the labels in the requested order.
c, d, a, b
